- testedSystem: Recombinant human ATX (Homo sapiens, UniProt Q13822)
- assayRemarks: ATX inhibition assay (released choline, Amplex Red fluorescence)
- conditionSummary: ATX 10 nM, LPC 18:1 10 μM, pre-incubated with ATX at 37° C. for 20 minutes; mean of n≧2
propertyLabel: IC50 (nM)

A: O=C(CCC(O)c1c[nH]nn1)NC1CCN(C(=O)OCc2cc(Cl)cc(Cl)c2)CC1 (centres unmarked)
B: O=C(CCC(=O)c1c[nH]nn1)NC1CCN(C(=O)OCc2cc(Cl)cc(Cl)c2)CC1
Q: Which one would you say has the larger IC50 value: A , or B ? Give the chosen item's label as your response.
A: B
